Source listed as paper PMC11440508.

- system_name: T1, human neurotensin receptor type 1 (hNTS1R), stably expressed in CHO cells (human, UniProt P30989 1-418)
- T1 construct: human neurotensin receptor type 1 (hNTS1R), wild type, stably expressed in Chinese hamster ovary cells; also called CHO-hNTS1R cells; CHO-NTS1R cells; source: CHO cells stably expressing hNTS1R; intact adherent cells, intact suspended cells and membrane preparations
- assay_details: high-content imaging (HCI) of fluorescent ligand on cells; equilibrium saturation binding at intact adherent CHO-hNTS1R or HT-29 cells, DPBS1 with 0.1% BSA, 23 ± 1 °C, washing step before reading; unspecific binding with 1 μM NT(8–13)
- condition_parameters: one partner purified
readout_label: Kd (nM)
Express the result in nM but write the number alone.

May I ask what Kd has been recorded for XPRRPYIL (N-terminus: 5-TAMRA attached through a 3-(1H-1,2,3-triazol-4-yl)propanoyl group; position 6 (X) = 2-(piperidin-4-yl)-Gly (pipGly); Arg8 = N^ω-[(4-(N-propanoyl)aminobutyl)aminocarbonyl]Arg) [5-TAMRA-labeled, propionylated NT(6–13) derivative 13 (UR-FE051)] ?
1.1
